Provide the reported protein stability index of each item.
B1: NETO1 (parent)
chain: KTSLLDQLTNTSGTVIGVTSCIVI

- Variants of: B1
- Method: protein stability index of a GFP-peptide fusion (GPS, HEK-293T) (PSI 1-6); higher = more stable;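 note: lentivirally expressed fusions sorted by FACS into six bins by GFP to DsRed ratio, PSI derived from sequencing read proportions per bin multiplied by bin number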
- Protocol Conditions: c terminus: a fixed tail appended
Reply with just the number.

Quick one: give measured protein stability index for T19P
1.91

Quick one: give measured protein stability index for L5N
3.16

Quick one: give measured protein stability index for I22Q
2.15

Quick one: give measured protein stability index for N10A
2.13

Quick one: give measured protein stability index for N10W
3.97

Quick one: give measured protein stability index for I16L
2.98

Quick one: give measured protein stability index for V15R
2.45

Quick one: give measured protein stability index for I16V
2.48

Quick one: give measured protein stability index for L8W
3.83

Quick one: give measured protein stability index for G17W
2.9

Quick one: give measured protein stability index for L8D
3.02
